Below, each entry is listed with its recorded IC50.
target system: PRMT5/MEP50 complex (Homo sapiens)
assay name: Inhibition of recombinant human fetal brain FLAG-tagged PRMT5/full length human testis 6His-tagged MEP50 expressed in baculovirus infected insect Sf9 cells using human histone H4 (1 to 15 residues) as substrate preincubated for 30 mins followed by [3H]-SAM addition

1) O=C(Cn1cnc2ccc(-c3cccc(OCC(O)CN4CCc5ccccc5C4)c3)cc21)N1CCCC1 (stereo unspecified) :: 101 to 1000 nM
2) O=C1CN(Cc2ccccn2)CCN1CC(O)CN1CCc2ccccc2C1 (stereo unspecified) :: 1000 to 10000 nM
3) CC(C)(C)OCc1cccc(-c2cccc(OCC(O)CN3CCc4ccccc4C3)c2)c1 (stereo unspecified) :: 101 to 1000 nM
4) O=C(NCC(O)CN1CCc2ccccc2C1)c1cccc(NC2COC2)c1 (stereo unspecified) :: 101 to 1000 nM
5) CN(C)c1ccc(N2CCN(C[C@H](O)CN3CCc4ccccc4C3)C(=O)C2)cc1 :: 1000 to 10000 nM
6) CN1CCC(c2cccc(C(=O)NCC(O)CN3CCc4ccccc4C3)c2)C1 (stereo unspecified) :: < 100 nM
7) OC(COc1cccc(-c2ccc3nc[nH]c3c2)c1)CN1CCc2ccccc2C1 (stereo unspecified) :: 101 to 1000 nM
8) O=C(NCC(O)CN1CCc2ccccc2C1)c1cccc(N2CCNCC2)c1 (stereo unspecified) :: < 100 nM
9) O=C1CN(c2ccc(CO)cc2)CCN1CC(O)CN1CCc2ccccc2C1 (stereo unspecified) :: 101 to 1000 nM
10) O[C@H](COc1cccc(-c2cccc3cccnc23)c1)CN1CCc2ccccc2C1 :: 101 to 1000 nM

Incoming: So what's the measured IC50 for this one? `O=C(COc1cccc2cccnc12)NC[C@@H](O)CN1CCc2ccccc2C1`
Outgoing: < 100 nM

Incoming: So what's the measured IC50 for this one? O=C1CN(c2ccc(Cl)cc2)CCN1CC(O)CN1CCc2ccccc2C1 (stereo unspecified)
Outgoing: < 100 nM

Incoming: So what's the measured IC50 for this one? O=C(COc1ccccc1S(=O)(=O)N1CCOCC1)NCC(O)CN1CCc2ccccc2C1 (stereo unspecified)
Outgoing: < 100 nM

Incoming: So what's the measured IC50 for this one? OC(COc1cccc(-c2ccc3cnoc3c2)c1)CN1CCc2ccccc2C1 (stereo unspecified)
Outgoing: 1000 to 10000 nM

Incoming: So what's the measured IC50 for this one? `C[C@H](Oc1cccc2cccnc12)C(=O)NC[C@@H](O)CN1CCc2ccccc2C1`
Outgoing: 1000 to 10000 nM

Incoming: So what's the measured IC50 for this one? O=C1CN(C2CCOCC2)CCN1CC(O)CN1CCc2ccccc2C1 (stereo unspecified)
Outgoing: 1000 to 10000 nM

Incoming: So what's the measured IC50 for this one? `C[C@@H](Oc1cccc2cccnc12)C(=O)NC[C@H](O)CN1CCc2ccccc2C1`
Outgoing: < 100 nM

Incoming: So what's the measured IC50 for this one? CN(c1cccc(C(=O)NCC(O)CN2CCc3ccccc3C2)c1)C1CCOCC1 (stereo unspecified)
Outgoing: 101 to 1000 nM

Incoming: So what's the measured IC50 for this one? OC(COc1cccc(-c2cccc3cccnc23)c1)CN1CCc2ccccc2C1 (stereo unspecified)
Outgoing: < 100 nM

Incoming: So what's the measured IC50 for this one? O=C(COc1ccccc1S(=O)(=O)N1CCCC1)NCC(O)CN1CCc2ccccc2C1 (stereo unspecified)
Outgoing: < 100 nM

Incoming: So what's the measured IC50 for this one? OC(COc1ccc(OCc2ccccc2)cc1)CN1CCc2ccccc2C1 (stereo unspecified)
Outgoing: 1000 to 10000 nM

====

Below, each entry is listed with its recorded pIC50.
target system: PRMT5/MEP50 complex (Homo sapiens, UniProt O14744)
Sequence (O14744 whole entry, the tested form may be a part): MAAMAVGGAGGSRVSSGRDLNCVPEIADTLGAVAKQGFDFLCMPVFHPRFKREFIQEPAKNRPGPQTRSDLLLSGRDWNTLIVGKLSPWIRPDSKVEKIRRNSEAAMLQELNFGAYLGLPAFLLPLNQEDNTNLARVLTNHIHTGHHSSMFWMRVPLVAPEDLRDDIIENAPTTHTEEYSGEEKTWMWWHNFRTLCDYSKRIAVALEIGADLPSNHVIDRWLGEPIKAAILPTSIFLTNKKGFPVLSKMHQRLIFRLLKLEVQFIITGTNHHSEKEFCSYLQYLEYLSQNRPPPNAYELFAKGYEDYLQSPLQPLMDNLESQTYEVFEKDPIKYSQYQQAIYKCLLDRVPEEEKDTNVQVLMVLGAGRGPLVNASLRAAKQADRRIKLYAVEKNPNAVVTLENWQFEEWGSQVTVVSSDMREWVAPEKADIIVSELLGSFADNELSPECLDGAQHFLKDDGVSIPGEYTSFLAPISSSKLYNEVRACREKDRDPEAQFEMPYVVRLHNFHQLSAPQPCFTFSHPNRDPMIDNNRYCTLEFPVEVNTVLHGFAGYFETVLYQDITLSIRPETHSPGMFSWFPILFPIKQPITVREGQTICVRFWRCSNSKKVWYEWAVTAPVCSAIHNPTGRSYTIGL
Sequence (Q9BQA1 whole entry, further chain, the tested form may be a part): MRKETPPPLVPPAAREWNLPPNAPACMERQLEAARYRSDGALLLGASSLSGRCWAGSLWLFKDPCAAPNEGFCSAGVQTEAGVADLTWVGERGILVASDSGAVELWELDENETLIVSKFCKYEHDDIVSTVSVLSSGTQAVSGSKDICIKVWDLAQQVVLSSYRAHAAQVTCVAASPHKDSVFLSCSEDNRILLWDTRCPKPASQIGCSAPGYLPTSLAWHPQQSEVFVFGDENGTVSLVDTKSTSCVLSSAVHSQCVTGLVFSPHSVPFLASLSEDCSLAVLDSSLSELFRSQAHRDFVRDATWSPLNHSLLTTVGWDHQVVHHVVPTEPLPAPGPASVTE
assay name: Inhibition of recombinant human fetal brain FLAG-tagged PRMT5/full length human testis 6His-tagged MEP50 expressed in baculovirus infected insect Sf9 cells using human histone H4 (1 to 15 residues) as substrate preincubated for 30 mins followed by [3H]-SAM addition
pIC50: −log10 of the molar value.

Incoming: Which measured pIC50 belongs to OC(COc1cccc(C2=CCCCC2)c1)CN1CCc2ccccc2C1 (stereo unspecified) , tested on PRMT5/MEP50 complex (Homo sapiens, UniProt O14744)?
Outgoing: 5.00 to 6.00

Incoming: Which measured pIC50 belongs to OC(COc1cccc(-c2ccc3ncn(C4COC4)c3c2)c1)CN1CCc2ccccc2C1 (stereo unspecified) , tested on PRMT5/MEP50 complex (Homo sapiens, UniProt O14744)?
Outgoing: > 7.00

====

Below, each entry is listed with its recorded IC50.
target system: PRMT5/MEP50 complex (Homo sapiens)
assay name: Inhibition of recombinant human fetal brain FLAG-tagged PRMT5/full length human testis 6His-tagged MEP50 expressed in baculovirus infected insect Sf9 cells using human histone H4 (1 to 15 residues) as substrate preincubated for 30 mins followed by [3H]-SAM addition

1) OC(COc1cccc(-c2ccc3cn[nH]c3c2)c1)CN1CCc2ccccc2C1 (stereo not given) :: 101 to 1000 nM
2) OC(COC1CCN(Cc2ccccc2)C1)CN1CCc2ccccc2C1 (stereo not given) :: 1000 to 10000 nM
3) Cn1cnc2ccc(N3CCCC(OCC(O)CN4CCc5ccccc5C4)C3)cc21 (stereo not given) :: 101 to 1000 nM
4) COc1ccc2cccc(OCC(=O)NC[C@@H](O)CN3CCc4ccccc4C3)c2n1 :: < 100 nM
5) CC(C)(C)OC(=O)N1CCC(OCC(O)CN2CCc3ccccc3C2)C1 (stereo not given) :: 1000 to 10000 nM

Incoming: So what's the measured IC50 for this one? Cn1cnc2ccc(-c3nccc(NCC(O)CN4CCc5ccccc5C4)n3)cc21 (stereo not given)
Outgoing: 1000 to 10000 nM

Incoming: So what's the measured IC50 for this one? Cn1ccc2ccc(-c3cccc(OCC(O)CN4CCc5ccccc5C4)c3)cc21 (stereo not given)
Outgoing: 101 to 1000 nM

Incoming: So what's the measured IC50 for this one? Cn1nccc1C(=O)Nc1cccc(OCC(O)CN2CCc3ccccc3C2)c1 (stereo not given)
Outgoing: 1000 to 10000 nM

Incoming: So what's the measured IC50 for this one? CC(C)(C)OC(=O)N1CCC(OCC(O)CN2CCc3ccccc3C2)CC1 (stereo not given)
Outgoing: 1000 to 10000 nM

Incoming: So what's the measured IC50 for this one? O=C(NCC(O)CN1CCc2ccccc2C1)c1cccc(NC2CCOC2)c1 (stereo not given)
Outgoing: < 100 nM

====

target system: Protein arginine N-methyltransferase 5 (Homo sapiens, UniProt O14744)
Sequence (O14744 whole entry): as the sequence (O14744 whole entry, the tested form may be a part) above
assay name: Inhibition of PRMT5 in human Z138 cells assessed as decrease in di-methyl arginine levels after 96 hrs by Western blot method
Type: cell-based
pEC50: −log10 of the molar value.
Below, each entry is listed with its recorded pEC50.

Example entries begin here.
1. CCN(c1cccc(C(=O)NCC(O)CN2CCc3ccccc3C2)c1C)C1CCOCC1 (stereo not given) :: > 7.00
2. NS(=O)(=O)c1ccc(C(=O)NCC(O)CN2CCc3ccccc3C2)cc1 (stereo not given) :: 6.00 to 7.00
3. Cn1ncc2ccc(-c3cc(NCC(O)CN4CCc5ccccc5C4)ncn3)cc21 (stereo not given) :: 6.00 to 7.00
4. OC(COc1cccc(-c2ccc3ncn(C4CNC4)c3c2)c1)CN1CCc2ccccc2C1 (stereo not given) :: 5.00 to 6.00
5. CC(=O)c1ccc(-c2cccc(OCC(O)CN3CCc4ccccc4C3)c2)cc1 (stereo not given) :: 5.00 to 6.00
6. CN1C(=O)COc2cccc(OCC(=O)NCC(O)CN3CCc4ccccc4C3)c21 (stereo not given) :: 6.00 to 7.00

Incoming: Which measured pEC50 belongs to O=C(COc1ccccc1C1CCCCC1)NCC(O)CN1CCc2ccccc2C1 (stereo not given) , tested on Protein arginine N-methyltransferase 5 (Homo sapiens, UniProt O14744)?
Outgoing: 6.00 to 7.00

Incoming: Which measured pEC50 belongs to CN(C)c1ncc(-c2cccc(OCC(O)CN3CCc4ccccc4C3)c2)cn1 (stereo not given) , tested on Protein arginine N-methyltransferase 5 (Homo sapiens, UniProt O14744)?
Outgoing: 5.00 to 6.00

Incoming: Which measured pEC50 belongs to Oc1cccc(-c2cccc(OCC(O)CN3CCc4ccccc4C3)c2)c1 (stereo not given) , tested on Protein arginine N-methyltransferase 5 (Homo sapiens, UniProt O14744)?
Outgoing: 5.00 to 6.00

Incoming: Which measured pEC50 belongs to CN1CCC(n2ncc3ccc(OCC(=O)NCC(O)CN4CCc5ccccc5C4)cc32)CC1 (stereo not given) , tested on Protein arginine N-methyltransferase 5 (Homo sapiens, UniProt O14744)?
Outgoing: 6.00 to 7.00

====

target system: PRMT5/MEP50 complex (Homo sapiens)
assay name: Inhibition of recombinant human fetal brain FLAG-tagged PRMT5/full length human testis 6His-tagged MEP50 expressed in baculovirus infected insect Sf9 cells using human histone H4 (1 to 15 residues) as substrate preincubated for 30 mins followed by [3H]-SAM addition
property name: IC50

1. O=C(COc1ccccc1OCCN1CCOCC1)NC[C@H](O)CN1CCc2ccccc2C1 :: < 0.1 µM
2. OC(COC1CCCNC1)CN1CCc2ccccc2C1 (stereo unspecified) :: > 40 µM
3. O=C1COCCN1CC(O)CN1CCc2ccccc2C1 (stereo unspecified) :: 1 to 10 µM
4. Cn1ncc2c(OCC(=O)NCC(O)CN3CCc4ccccc4C3)cccc21 (stereo unspecified) :: < 0.1 µM
5. NS(=O)(=O)c1ccc(C(=O)NCC(O)CN2CCc3ccccc3C2)cc1 (stereo unspecified) :: 0.101 to 1 µM

Incoming: So what's the measured IC50 for this one? OC(COCC1CCNC1)CN1CCc2ccccc2C1 (stereo unspecified)
Outgoing: > 40 µM

Incoming: So what's the measured IC50 for this one? OC(COCc1ccc(Cl)cc1Cl)CN1CCc2ccccc2C1 (stereo unspecified)
Outgoing: 1 to 10 µM

Incoming: So what's the measured IC50 for this one? O=C(COc1ccccc1N1CCNCC1)NCC(O)CN1CCc2ccccc2C1 (stereo unspecified)
Outgoing: < 0.1 µM

Incoming: So what's the measured IC50 for this one? O=C1CC(c2ccccc2)CCN1C[C@H](O)CN1CCc2ccccc2C1 (stereo partly specified)
Outgoing: 1 to 10 µM

Incoming: So what's the measured IC50 for this one? CN(C)C(=O)c1ccccc1OCC(=O)NCC(O)CN1CCc2ccccc2C1 (stereo unspecified)
Outgoing: 0.101 to 1 µM

Incoming: So what's the measured IC50 for this one? N#CCc1cccc(-c2cccc(OCC(O)CN3CCc4ccccc4C3)c2)c1 (stereo unspecified)
Outgoing: 0.101 to 1 µM
